System: Amphimallon majale
assay_comment: Insecticidal activity against Amphimallon majalis (European chafer) assessed as mortality after 30 days
Assay type: functional
assay_readout: Activity (%)
Answer in %, number only, no unit symbol.

Below are worked cases with known answers.
molecule=CN1COCN(Cc2cnc(Cl)s2)/C1=N\[N+](=O)[O-] assay_readout=Activity unit_symbol=% quantitative_result=35.1
molecule=CCOP(=S)(OCC)Oc1nc(Cl)c(Cl)cc1Cl assay_readout=Activity unit_symbol=% quantitative_result=100
molecule=Cc1c(COC(=O)[C@@H]2[C@H](/C=C(\Cl)C(F)(F)F)C2(C)C)cccc1-c1ccccc1 assay_readout=Activity unit_symbol=% quantitative_result=0
molecule=C/C=C(\C)C(=O)O[C@H]1C[C@@H](OC(C)=O)[C@@]2(C(=O)OC)CO[C@H]3[C@@H](O)[C@@](C)([C@]45O[C@@]4(C)[C@@H]4C[C@H]5O[C@@H]5OC=C[C@@]54O)[C@H]4[C@]1(CO[C@]4(O)C(=O)OC)[C@@H]32 assay_readout=Activity unit_symbol=% quantitative_result=15.8
molecule=O=[N+]([O-])/N=C1\NCCN1Cc1ccc(Cl)nc1 assay_readout=Activity unit_symbol=% quantitative_result=34.2

// molecule COP(=O)(OC)C(O)C(Cl)(Cl)Cl (stereo not drawn) , assay Amphimallon majale, Activity value: 7.4

// molecule CN/C(=N\[N+](=O)[O-])NCc1cnc(Cl)s1 , assay Amphimallon majale, Activity value: 44.3

// molecule CN/C(=N/CC1CCOC1)N[N+](=O)[O-] (stereo not drawn) , assay Amphimallon majale, Activity value: 8.9

* * *

Each entry below carries its reported Activity.
System: Popillia japonica
assay_comment: Insecticidal activity against Popillia japonica assessed as mortality after 30 days
Format: functional
Answer in %, number only, no unit symbol.

Below are worked cases with known answers.
compound="CN/C(=N/CC1CCOC1)N[N+](=O)[O-] (stereo not drawn) [DINOTEFURAN]" assay_readout=Activity quantitative_result=86.2
compound="C/C=C(\\C)C(=O)O[C@H]1C[C@@H](OC(C)=O)[C@@]2(C(=O)OC)CO[C@H]3[C@@H](O)[C@@](C)([C@]45O[C@@]4(C)[C@@H]4C[C@H]5O[C@@H]5OC=C[C@@]54O)[C@H]4[C@]1(CO[C@]4(O)C(=O)OC)[C@@H]32 [AZADIRACHTIN A]" assay_readout=Activity quantitative_result=87.2
compound="CN/C(=N\\[N+](=O)[O-])NCc1cnc(Cl)s1 [CLOTHIANIDINE]" assay_readout=Activity quantitative_result=32.8
compound="O=[N+]([O-])/N=C1\\NCCN1Cc1ccc(Cl)nc1 [IMIDACLOPRID]" assay_readout=Activity quantitative_result=41.7
compound="CN1COCN(Cc2cnc(Cl)s2)/C1=N\\[N+](=O)[O-] [THIAMETHOXAM]" assay_readout=Activity quantitative_result=91

Lab note: Cc1c(COC(=O)[C@@H]2[C@H](/C=C(\Cl)C(F)(F)F)C2(C)C)cccc1-c1ccccc1 [BIFENTHRIN] gave Activity of 86.7

Lab note: COP(=O)(OC)C(O)C(Cl)(Cl)Cl (stereo not drawn) [TRICHLORFON] gave Activity of 94.8

Lab note: CCOP(=S)(OCC)Oc1nc(Cl)c(Cl)cc1Cl [CHLORPYRIFOS] gave Activity of 100

* * *

System: Maladera castanea
assay_comment: Insecticidal activity against Maladera castanea assessed as mortality after 30 days
Type: functional
Parameters: concentration or dose not given beside the values
Each entry below carries its reported Activity.
Answer in %, number only, no unit symbol.

Below are worked cases with known answers.
compound=O=[N+]([O-])/N=C1\NCCN1Cc1ccc(Cl)nc1 assay_readout=Activity unit_symbol=% quantitative_result=38.8
compound=CN/C(=N\[N+](=O)[O-])NCc1cnc(Cl)s1 assay_readout=Activity unit_symbol=% quantitative_result=100
compound="COP(=O)(OC)C(O)C(Cl)(Cl)Cl (stereo not given)" assay_readout=Activity unit_symbol=% quantitative_result=100
compound=CCOP(=S)(OCC)Oc1nc(Cl)c(Cl)cc1Cl assay_readout=Activity unit_symbol=% quantitative_result=92.4

Continue with the compound presented below.
// compound CN1COCN(Cc2cnc(Cl)s2)/C1=N\[N+](=O)[O-] , assay Maladera castanea, Activity value: 72.8
